- Test method notes: Plasma pharmacokinetics and tissue distribution 2 h after oral cabazitaxel 10 mg/kg with vehicle or 25 mg/kg ritonavir in wild-type, Oatp1a/1b−/−, Oatp1a/1b/2b1−/−, OATP1B1- and OATP1B3-transgenic mice
- Assay type: in vivo
- Condition parameters: male, FVB, mouse, plasma, po, 25 mg/kg, OATP1B1-transgenic mice; ritonavir 25 mg/kg oral; cabazitaxel 10 mg/kg oral
Test readout: Cmax (µM)
// units = µM; emit number, no label

Query :: Sample CC(C)c1nc(CN(C)C(=O)N[C@H](C(=O)N[C@@H](Cc2ccccc2)C[C@H](O)[C@H](Cc2ccccc2)NC(=O)OCc2cncs2)C(C)C)cs1 [ritonavir] — what was its Cmax?
Result :: 8.35

----------
- Test method notes: Carboxylesterase pharmacokinetic experiment: oral cabazitaxel 10 mg/kg, 2 h, in wild-type, Ces1cde−/− and Ces1−/− mice
- Type: in vivo
- Condition parameters: male, FVB, mouse, plasma, po, 10 mg/kg, Ces1cde−/− mice; oral 10 mg/kg cabazitaxel
Test readout: Cmax (µM)
// units = µM; emit number, no label

Query :: Sample `CO[C@H]1C(=O)[C@]2(C)[C@@H](OC)C[C@H]3OC[C@@]3(OC(C)=O)[C@H]2[C@H](OC(=O)c2ccccc2)[C@]2(O)C[C@H](OC(=O)[C@H](O)[C@@H](NC(=O)OC(C)(C)C)c3ccccc3)C(C)=C1C2(C)C` — what was its Cmax?
Result :: 1.08

----------
- Test method notes: in vivo
- Condition parameters: male, Cyp3a−/− (FVB background), mouse, po, 10 mg/kg, Brain-to-plasma ratio
Test readout: Kp at 24 h
# print the numeric value only

Query :: Sample CO[C@H]1C(=O)[C@]2(C)[C@@H](OC)C[C@H]3OC[C@@]3(OC(C)=O)[C@H]2[C@H](OC(=O)c2ccccc2)[C@]2(O)C[C@H](OC(=O)[C@H](O)[C@@H](NC(=O)OC(C)(C)C)c3ccccc3)C(C)=C1C2(C)C [cabazitaxel] — what was its Kp at 24 h?
Result :: 0.231

----------
- Test method notes: in vivo
- Condition parameters: male, FVB, Cyp3aXAV, mouse, po, 1 mg/kg, Tmax
Test readout: Tmax (h)
// units = h; emit number, no label

Query :: Sample CC(C)c1nc(CN(C)C(=O)N[C@H](C(=O)N[C@@H](Cc2ccccc2)C[C@H](O)[C@H](Cc2ccccc2)NC(=O)OCc2cncs2)C(C)C)cs1 [ritonavir] — what was its Tmax?
Result :: 1.38

----------
- Test method notes: in vivo
- Condition parameters: male, wild-type FVB, mouse, po, 10 mg/kg, Brain-to-plasma ratio
Test readout: Kp at 24 h
# print the numeric value only

Query :: Sample `CO[C@H]1C(=O)[C@]2(C)[C@@H](OC)C[C@H]3OC[C@@]3(OC(C)=O)[C@H]2[C@H](OC(=O)c2ccccc2)[C@]2(O)C[C@H](OC(=O)[C@H](O)[C@@H](NC(=O)OC(C)(C)C)c3ccccc3)C(C)=C1C2(C)C` — what was its Kp at 24 h?
Result :: 1.17

----------
- Test method notes: in vivo
- Condition parameters: male, FVB, wild-type, mouse, po, 10 mg/kg, AUC0-24 h
Test readout: AUC(0-t) (µM·h)
// units = µM·h; emit number, no label

{"columns": ["Molecule", "Recorded result"],
 "data": [
  ["CC(=O)O[C@@]12CO[C@@H]1C[C@H](O)[C@@]1(C)C(=O)[C@H](O)C3=C(C)[C@@H](OC(=O)[C@H](O)[C@@H](NC(=O)OC(C)(C)C)c4ccccc4)C[C@@](O)([C@@H](OC(=O)c4ccccc4)[C@H]21)C3(C)C [docetaxel]", 0.707]
]}

Query :: Sample CC(C)c1nc(CN(C)C(=O)N[C@H](C(=O)N[C@@H](Cc2ccccc2)C[C@H](O)[C@H](Cc2ccccc2)NC(=O)OCc2cncs2)C(C)C)cs1 [ritonavir] — what was its AUC(0-t)?
Result :: 1.44

Query :: Sample CO[C@H]1C(=O)[C@]2(C)[C@@H](OC)C[C@H]3OC[C@@]3(OC(C)=O)[C@H]2[C@H](OC(=O)c2ccccc2)[C@]2(O)C[C@H](OC(=O)[C@H](O)[C@@H](NC(=O)OC(C)(C)C)c3ccccc3)C(C)=C1C2(C)C [cabazitaxel] — what was its AUC(0-t)?
Result :: 72.8

----------
- Test method notes: Carboxylesterase pharmacokinetic experiment: oral cabazitaxel 10 mg/kg, 2 h, in wild-type, Ces1cde−/− and Ces1−/− mice
- Assay type: in vivo
- Condition parameters: male, FVB, mouse, plasma, po, 10 mg/kg, wild-type mice; oral 10 mg/kg cabazitaxel; plasma; read-out: AUC0-120min
Test readout: AUC(0-t) (µM·h)
// units = µM·h; emit number, no label

Query :: Sample CO[C@H]1C(=O)[C@]2(C)[C@@H](OC)C[C@H]3OC[C@@]3(OC(C)=O)[C@H]2[C@H](OC(=O)c2ccccc2)[C@]2(O)C[C@H](OC(=O)[C@H](O)[C@@H](NC(=O)OC(C)(C)C)c3ccccc3)C(C)=C1C2(C)C [cabazitaxel] — what was its AUC(0-t)?
Result :: 6.86

----------
- Test method notes: in vivo
- Condition parameters: male, Cyp3a−/− (FVB background), mouse, po, 10 mg/kg, Tmax
Test readout: Tmax (h)
// units = h; emit number, no label

Query :: Sample `CO[C@H]1C(=O)[C@]2(C)[C@@H](OC)C[C@H]3OC[C@@]3(OC(C)=O)[C@H]2[C@H](OC(=O)c2ccccc2)[C@]2(O)C[C@H](OC(=O)[C@H](O)[C@@H](NC(=O)OC(C)(C)C)c3ccccc3)C(C)=C1C2(C)C` — what was its Tmax?
Result :: 2.08

----------
- Test method notes: in vivo
- Condition parameters: male, FVB, wild-type, mouse, po, 10 mg/kg, Cmax
Item-by-item account of Cmax
Please make sure the unit comes right after the number.

{"columns": ["Smiles code", "Test readout", "Recorded result"],
 "data": [
  ["CC(C)c1nc(CN(C)C(=O)N[C@H](C(=O)N[C@@H](Cc2ccccc2)C[C@H](O)[C@H](Cc2ccccc2)NC(=O)OCc2cncs2)C(C)C)cs1", "Cmax", "749 nM"]
]}

Below: the item to evaluate.
Query :: Sample `CC(=O)O[C@@]12CO[C@@H]1C[C@H](O)[C@@]1(C)C(=O)[C@H](O)C3=C(C)[C@@H](OC(=O)[C@H](O)[C@@H](NC(=O)OC(C)(C)C)c4ccccc4)C[C@@](O)([C@@H](OC(=O)c4ccccc4)[C@H]21)C3(C)C` — what was its Cmax?
Result :: 119 nM

----------
- Test method notes: Plasma pharmacokinetics and tissue distribution 2 h after oral cabazitaxel 10 mg/kg with vehicle or 25 mg/kg ritonavir in wild-type, Oatp1a/1b−/−, Oatp1a/1b/2b1−/−, OATP1B1- and OATP1B3-transgenic mice
- Type: in vivo
- Condition parameters: male, FVB, mouse, liver, oral, OATP1B1-transgenic mice; ritonavir 25 mg/kg oral; cabazitaxel 10 mg/kg oral; 2 h; read-out: Liver-to-plasma ratio
Test readout: Kp at 2 h
# print the numeric value only

Query :: Sample `CO[C@H]1C(=O)[C@]2(C)[C@@H](OC)C[C@H]3OC[C@@]3(OC(C)=O)[C@H]2[C@H](OC(=O)c2ccccc2)[C@]2(O)C[C@H](OC(=O)[C@H](O)[C@@H](NC(=O)OC(C)(C)C)c3ccccc3)C(C)=C1C2(C)C` — what was its Kp at 2 h?
Result :: 3.84

----------
- Test method notes: Plasma pharmacokinetics and tissue distribution 2 h after oral cabazitaxel 10 mg/kg with vehicle or 25 mg/kg ritonavir in wild-type, Oatp1a/1b−/−, Oatp1a/1b/2b1−/−, OATP1B1- and OATP1B3-transgenic mice
- Type: in vivo
- Condition parameters: male, FVB, mouse, plasma, po, 10 mg/kg, OATP1B3-transgenic mice; vehicle; cabazitaxel 10 mg/kg oral
Test readout: Cmax (nM)
// units = nM; emit number, no label

Query :: Sample CO[C@H]1C(=O)[C@]2(C)[C@@H](OC)C[C@H]3OC[C@@]3(OC(C)=O)[C@H]2[C@H](OC(=O)c2ccccc2)[C@]2(O)C[C@H](OC(=O)[C@H](O)[C@@H](NC(=O)OC(C)(C)C)c3ccccc3)C(C)=C1C2(C)C [cabazitaxel] — what was its Cmax?
Result :: 2690

----------
- Test method notes: Plasma pharmacokinetics and tissue distribution 2 h after oral cabazitaxel 10 mg/kg with vehicle or 25 mg/kg ritonavir in wild-type, Oatp1a/1b−/−, Oatp1a/1b/2b1−/−, OATP1B1- and OATP1B3-transgenic mice
- Format: in vivo
- Condition parameters: male, FVB, mouse, brain/plasma, po, 10 mg/kg, wild-type mice; vehicle; cabazitaxel 10 mg/kg oral; 2 h; read-out: Brain-to-plasma ratio
Test readout: Kp at 2 h
# print the numeric value only

Query :: Sample CO[C@H]1C(=O)[C@]2(C)[C@@H](OC)C[C@H]3OC[C@@]3(OC(C)=O)[C@H]2[C@H](OC(=O)c2ccccc2)[C@]2(O)C[C@H](OC(=O)[C@H](O)[C@@H](NC(=O)OC(C)(C)C)c3ccccc3)C(C)=C1C2(C)C [cabazitaxel] — what was its Kp at 2 h?
Result :: 0.069
